tested on: H69AR cells; test: Cytotoxicity in panel of MDR cell lines, H69AR (72 h and 144 h); assay type: cell-based, human; conditions: 72 h incubation
For each entry below, report its H69AR % Kill 72 h value.
Supply the numeric figure in %, leaving out any unit text.

-- ask Recall and state the measured H69AR % Kill 72 h for `CC[C@H](C)[C@H](NC(=O)[C@H]1CCCCN1C)C(=O)N(CCCCc1cn(-c2ccccc2)nn1)[C@H](C[C@@H](OC(C)=O)c1nc(C(=O)N[C@@H](Cc2ccc(N)cc2)CC(C)(C)C(=O)O)cs1)C(C)C` .
-- reply 96.3

-- ask Recall and state the measured H69AR % Kill 72 h for `C#CCCCON(C(=O)[C@@H](NC(=O)[C@H]1CCCCN1C)[C@@H](C)CC)[C@H](C[C@@H](OC(C)=O)c1nc(C(=O)N[C@@H](Cc2ccccc2)CC(C)(C)C(=O)O)cs1)C(C)C` .
-- reply 96.6

-- ask Recall and state the measured H69AR % Kill 72 h for `[2H]c1cc(C[C@@H](CC(C)(C)C(=O)O)NC(=O)c2csc([C@@H](C[C@H](C(C)C)N(CCCCCC)C(=O)[C@@H](NC(=O)[C@H]3CCCCN3C)[C@@H](C)CC)OC(C)=O)n2)cc([2H])c1N` .
-- reply 96.8

-- ask Recall and state the measured H69AR % Kill 72 h for `CC[C@H](C)[C@H](NC(=O)[C@H]1CCCCN1C)C(=O)N(CCCCc1cn(C)nn1)[C@H](C[C@@H](OC(C)=O)c1nc(C(=O)N[C@@H](Cc2ccc(N)cc2)CC(C)(C)C(=O)O)cs1)C(C)C` .
-- reply 90.2

-- ask Recall and state the measured H69AR % Kill 72 h for `C#CCCCON(C(=O)[C@@H](NC(=O)[C@H]1CCCCN1C)[C@@H](C)CC)[C@H](C[C@@H](OC(C)=O)c1nc(C(=O)N[C@@H](Cc2ccc(N)cc2)CC(C)(C)C(=O)O)cs1)C(C)C` .
-- reply 96.6

---

For each entry below, report its HCT-15 % Kill value.
system: HCT15 cells; experiment: cells; assay type: cell-based, human; conditions: HCT15 cells, without Verapamil, maximum % cell killing
Supply the numeric figure in %, leaving out any unit text.

-- ask Recall and state the measured HCT-15 % Kill for CC[C@H](C)[C@H](NC(=O)[C@H]1CCCCN1C)C(=O)N(CCCCc1cn(Cc2ccccc2)nn1)[C@H](C[C@@H](OC(C)=O)c1nc(C(=O)N[C@@H](Cc2ccc(N)cc2)CC(C)(C)C(=O)O)cs1)C(C)C [IVo] .
-- reply 98.6

-- ask Recall and state the measured HCT-15 % Kill for CC[C@H](C)[C@H](NC(=O)[C@H]1CCCCN1C)C(=O)N(OCCCO)[C@H](C[C@@H](OC(C)=O)c1nc(C(=O)N[C@@H](Cc2ccc(O)cc2)C[C@H](C)C(=O)O)cs1)C(C)C [Vk] .
-- reply 41.5

-- ask Recall and state the measured HCT-15 % Kill for C#CCCCON(C(=O)[C@@H](NC(=O)[C@H]1CCCCN1C)[C@@H](C)CC)[C@H](C[C@@H](OC(C)=O)c1nc(C(=O)N[C@@H](Cc2ccc(O)cc2)C[C@H](C)C(=O)O)cs1)C(C)C [Vg] .
-- reply 94.9

-- ask Recall and state the measured HCT-15 % Kill for CCCCCCON(C(=O)[C@@H](NC(=O)[C@H]1CCCCN1C)[C@@H](C)CC)[C@H](C[C@@H](OC(=O)NCCC)c1nc(C(=O)N[C@@H](Cc2ccc(O)cc2)C[C@H](C)C(=O)O)cs1)C(C)C [VIc] .
-- reply 94

-- ask Recall and state the measured HCT-15 % Kill for C#CCCCCN(C(=O)[C@@H](NC(=O)[C@H]1CCCCN1C)[C@@H](C)CC)[C@H](C[C@@H](OC(C)=O)c1nc(C(=O)N[C@@H](Cc2ccc(N)cc2)CC(C)(C)C(=O)O)cs1)C(C)C [IVd] .
-- reply 98.2

-- ask Recall and state the measured HCT-15 % Kill for CCCCCCON(C(=O)[C@@H](NC(=O)[C@H]1CCCCN1C)[C@@H](C)CC)[C@H](C[C@@H](OC(=O)NCCCC)c1nc(C(=O)N[C@@H](Cc2ccc(O)cc2)C[C@H](C)C(=O)O)cs1)C(C)C [VId] .
-- reply 78.7

-- ask Recall and state the measured HCT-15 % Kill for CCCCCCNC(=O)O[C@H](C[C@H](C(C)C)N(OCCCCCC)C(=O)[C@@H](NC(=O)[C@H]1CCCCN1C)[C@@H](C)CC)c1nc(C(=O)N[C@@H](Cc2ccc(O)cc2)C[C@H](C)C(=O)O)cs1 [VIe] .
-- reply 36.6

-- ask Recall and state the measured HCT-15 % Kill for C#CCCCCN(C(=O)[C@@H](NC(=O)[C@H]1CCCCN1C)[C@@H](C)CC)[C@H](C[C@@H](OC(C)=O)c1nc(C(=O)N[C@@H](Cc2ccc(O)cc2)C[C@H](C)C(=O)O)cs1)C(C)C [IVf] .
-- reply 96.4

-- ask Recall and state the measured HCT-15 % Kill for C#CCCCON(C(=O)[C@@H](NC(=O)[C@H]1CCCCN1C)[C@@H](C)CC)[C@H](C[C@@H](OC(C)=O)c1nc(C(=O)N[C@@H](Cc2ccccc2)CC(C)(C)C(=O)O)cs1)C(C)C [Vc] .
-- reply 97.6

-- ask Recall and state the measured HCT-15 % Kill for CCCCCCN(C(=O)[C@@H](NC(=O)[C@H]1CCCCN1C)[C@@H](C)CC)[C@H](C[C@@H](OC(C)=O)c1nc(C(=O)N[C@H](Cc2ccc(N)c(F)c2)CC(C)(C)C(=O)O)cs1)C(C)C [IVvA] .
-- reply 99.2

-- ask Recall and state the measured HCT-15 % Kill for C#CCCCCN(C(=O)[C@@H](NC(=O)[C@H]1CCCCN1C)[C@@H](C)CC)[C@H](C[C@@H](OC(C)=O)c1nc(C(=O)N[C@@H](Cc2ccc(F)cc2)CC(C)(C)C(=O)O)cs1)C(C)C [IVc] .
-- reply 99.2

---

test system: H69AR cells; test: Cytotoxicity in panel of MDR cell lines, H69AR (72 h and 144 h); format: cell-based, human; conditions: 72 h incubation
observation type: H69AR % Kill 72 h (%)
Supply the numeric figure in %, leaving out any unit text.

-- ask Report H69AR % Kill 72 h under test system H69AR cells for `CC[C@H](C)[C@H](NC(=O)[C@H]1CCCCN1C)C(=O)N(CCCCc1cn(Cc2ccccc2)nn1)[C@H](C[C@@H](OC(C)=O)c1nc(C(=O)N[C@@H](Cc2ccc(N)cc2)CC(C)(C)C(=O)O)cs1)C(C)C` .
-- reply 96.2

-- ask Report H69AR % Kill 72 h under test system H69AR cells for `C#CCCCCN(C(=O)[C@@H](NC(=O)[C@H]1CCCCN1C)[C@@H](C)CC)[C@H](C[C@@H](OC(C)=O)c1nc(C(=O)N[C@@H](Cc2ccc(F)cc2)C[C@H](C)C(=O)O)cs1)C(C)C` .
-- reply 96.5

-- ask Report H69AR % Kill 72 h under test system H69AR cells for `C#CCCCON(C(=O)[C@@H](NC(=O)[C@H]1CCCCN1C)[C@@H](C)CC)[C@H](C[C@@H](OC(C)=O)c1nc(C(=O)N[C@@H](Cc2ccc(N)cc2)C[C@H](C)C(=O)O)cs1)C(C)C` .
-- reply 93.7

-- ask Report H69AR % Kill 72 h under test system H69AR cells for `C#CCCCCN(C(=O)[C@@H](NC(=O)[C@H]1CCCCN1C)[C@@H](C)CC)[C@H](C[C@@H](OC(C)=O)c1nc(C(=O)N[C@@H](Cc2ccc(O)cc2)C[C@H](C)C(=O)O)cs1)C(C)C` .
-- reply 94.6

-- ask Report H69AR % Kill 72 h under test system H69AR cells for `[2H]c1cc(C[C@@H](CC(C)(C)C(=O)O)NC(=O)c2csc([C@@H](C[C@H](C(C)C)N(CCCCC#C)C(=O)[C@@H](NC(=O)[C@H]3CCCCN3C)[C@@H](C)CC)OC(C)=O)n2)cc([2H])c1N` .
-- reply 96.7

---

tested on: H69AR cells; experiment: Cytotoxicity in panel of MDR cell lines, H69AR (72 h and 144 h); type: cell-based, human; conditions: 72 h incubation
For each entry below, report its H69AR % Kill 72 h value.
Supply the numeric figure in %, leaving out any unit text.

-- ask Recall and state the measured H69AR % Kill 72 h for `CCCCCON(C(=O)[C@@H](NC(=O)[C@H]1CCCCN1C)[C@@H](C)CC)[C@H](C[C@@H](OC(=O)NC)c1nc(C(=O)N[C@@H](Cc2ccc(N)cc2)CC(C)(C)C(=O)O)cs1)C(C)C` .
-- reply 96.3

-- ask Recall and state the measured H69AR % Kill 72 h for `C#CCCCCN(C(=O)[C@@H](NC(=O)[C@H]1CCCCN1C)[C@@H](C)CC)[C@H](C[C@@H](OC(C)=O)c1nc(C(=O)N[C@@H](Cc2ccc(N)cc2)CC(C)(C)C(=O)O)cs1)C(C)C` .
-- reply 96.9

-- ask Recall and state the measured H69AR % Kill 72 h for CCCCCCN(C(=O)[C@@H](NC(=O)[C@H]1CCCCN1C)[C@@H](C)CC)[C@H](C[C@@H](OC(C)=O)c1nc(C(=O)NC(Cc2ccc(F)c(N)c2)CC(C)(C)C(=O)O)cs1)C(C)C (stereo partly drawn) .
-- reply 96.4

-- ask Recall and state the measured H69AR % Kill 72 h for `CCCCCCN(C(=O)[C@@H](NC(=O)[C@H]1CCCCN1C)[C@@H](C)CC)[C@H](C[C@@H](OC(C)=O)c1nc(C(=O)N[C@@H](Cc2ccc(F)cc2)C[C@H](C)C(=O)O)cs1)C(C)C` .
-- reply 96.1

-- ask Recall and state the measured H69AR % Kill 72 h for `CCCCCCN(C(=O)[C@@H](NC(=O)[C@H]1CCCCN1C)[C@@H](C)CC)[C@H](C[C@@H](OC(C)=O)c1nc(C(=O)N[C@@H](Cc2ccc(N)cc2)CC(C)(C)C(=O)O)cs1)C(C)C` .
-- reply 96.9

-- ask Recall and state the measured H69AR % Kill 72 h for `C#CCCCON(C(=O)[C@@H](NC(=O)[C@H]1CCCCN1C)[C@@H](C)CC)[C@H](C[C@@H](OC(C)=O)c1nc(C(=O)N[C@@H](Cc2ccc(O)cc2)C[C@H](C)C(=O)O)cs1)C(C)C` .
-- reply 94.2

Data credit: patent US12144864B2
